Listed binders paired with reported koff
- Study System: T1, recombinant human IL-13 (human, UniProt P35225 35-146)
- T1 construct: also called rh-IL-13; hIL-13
- T1 sequence (P35225 35-146 limits assumed): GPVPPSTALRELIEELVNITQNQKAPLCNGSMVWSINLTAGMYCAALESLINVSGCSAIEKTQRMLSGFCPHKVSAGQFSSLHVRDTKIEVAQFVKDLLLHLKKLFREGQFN
- Method Notes: SPR
Express your answer in s⁻¹, writing the number without its unit.

>  <Binder>
BDG38.125 (antibody, V domains shown, IgG1) VH: QMQLVESGGGVVQPGRSLRLSCAASGFEFRTYGMHWVRQAPGKGLEWVAVIWDDGSNTHYADSVKGRFTITRDNSKNTLNLQMNSLRAEDTAVYYCVRAPQWYLTAEAFDLWGQGTMVTVSS VL: SYVLTQPPSVSVAPGETATITCGGNLIGARLVHWYQQKPGQAPVLVIYDDSDRPSRIPERFSGSNIGNTATLTIERVEEGDEADYYCQVWDYSSDHMVFGGGTKLTVL

>  <Measurement Units>
s⁻¹

>  <koff>
4.76e-05

$$$$

Now for another entry.
Input BDG38.126 (antibody, V domains shown, IgG1) VH: QMQLVESGGGVVQPGRSLRLSCAASGFEFRTYGMHWVRQAPGKGLEWVGVIWDDGSNTHYADSVKGRFTITRDNSKNTLNLQMNSLRAEDTAVYYCVRAPQWYLTAEAFDLWGQGTMVTVSS VL: SYILTQPPSVSVAPGQTARITCGGNLIGAKLVHWYQQKPGQAPVLVIYDDSDRPSRIPERFSGSNIGNTATLTIERVEEGDEADYYCQVWDYSSDHMVFGGGTKLTVL , output reported koff.
0.000143
